- Read-out: Vascular cell adhesion molecule 1 (VCAM1), VCAM1 (gene 7412)
- experiment.summary: BSK_CASM3C_VCAM1: BioMAP Diversity Plus: CASM3C Assay for Vascular cell adhesion molecule 1 (VCAM1) Biomarker Activity (AID 2283055);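 also: VCAM-1 protein level quantified by ELISA on the cells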
- condition.set: primary human coronary artery smooth muscle cells; actives raise or lower the signal
Activity calls are given as the source filed them. The calls were made as follows: active = hit-call score of the fitted dose curve at least 0.9, where 1 is the maximum; inactive = score below 0.9.
Lab note: assign the record to one of Yes for active, No for inactive

Hi, sorry to bother you, what did the test record for CCOP(=S)(OCC)SCCS(=O)(=O)CC ?
No

What do we get for O=C(OC1CCCCC1)c1ccccc1C(=O)OC1CCCCC1 ?
No

What do we get for O=S(=O)(c1ccc(Cl)cc1)c1ccc(Cl)cc1 ?
No

What do we get for O=[N+]([O-])c1ccc2c3c(cccc13)CC2 ?
No

What do we get for CC(C)(OO)c1ccccc1 ?
No

What do we get for C[C@@H]1C[C@@H]([C@H](O)CC2CC(=O)NC(=O)C2)C(=O)[C@@H](C)C1 ?
Yes

What do we get for Oc1cccc2cccnc12 ?
No
